Value source: paper PMC9250534

molecular target: thrombin (Homo sapiens); construct: consists of two polypeptide chains of 36 (light chain) and 259 amino acid; assay: Thrombin inhibition screen of crude macrocycle reactions (residual thrombin activity, fluorogenic substrate Z-Gly-Gly-Arg-AMC); assay type: biochemical; details: 10 µM macrocycle concentration; crude reactions, Library 1a-l; scaffold AA1-AA2-AA3 combined with 1-16 or '-'
Numbered stars: 1 amine (or outer) side, 2 acyl side, 3 side chain; on linkers, the order of the positions; unused ones are H or OH. Bridge positions count the residues as written; N and C are the ends. Square brackets hold non-standard residues; d marks the D form. Peptide text beside a SMILES is read from it. * marks the point of attachment. Cysteamide = C(CS[*:3])N[*:1]; Isovaleryl = CC(C)CC(=O)*; Mpa = O=C(O)CCS
Measurement Type: percent residual thrombin activity (%)

CC(C)[C@@H]1NC(=O)[C@H](CCCCNC(=O)c2ccco2)NC(=O)CCSSCCNC(=O)C2(CC2)CNC1=O [D1-V-B6/16]	107.867
CC(C)CC(=O)NCCCC[C@@H]1NC(=O)[C@H](CC(C)C)NC(=O)CCSSCCNC(=O)[C@@H]2CCCN2C1=O [L-D1-B1/8] ([Mpa]LK(Isovaleryl)P-Cysteamide; disulfide 1-C)	109.409
O=C1CCSSCCNC(=O)[C@H](Cc2cnc[nH]2)NC(=O)c2cccc(c2)CNC(=O)[C@H](CCCNC(=O)c2ccco2)N1 [D2-B5-H/16]	101.891

====

biological target: MDM2 (Homo sapiens); experiment: MDM2 binding screen of Libraries 3 and 4: displacement of fluorescent probe F-M8 at 750 nM macrocycle; details: Panel b, Library 3: 63 scaffolds combinatorially acylated with 15 carboxylic acids at 30 picomole scale; displacement of fluorescent peptide probe; macrocycle 750 nM
Measurement Type: fraction of fluorescent probe displaced

O=C(/C=C/c1ccc(OCc2ccccc2)cc1)NC[C@H]1NC(=O)C2(CC2)CNC(=O)CCSSCCNC(=O)[C@H](Cc2c[nH]c3cc(Cl)ccc23)NC1=O	0.008
O=C(CCS(=O)(=O)c1ccccc1)NC[C@H]1NC(=O)C2(CC2)CNC(=O)CCSSCCNC(=O)[C@@H](Cc2c[nH]c3ccccc23)NC1=O	0.008
CN1C(=O)[C@H](CNC(=O)c2ccc3ccccc3c2)NC(=O)[C@H]2CCCN(C2)C(=O)CCSSCCNC(=O)[C@@H]1Cc1c[nH]c2ccccc12	0.031

(a) CC(Oc1cccc(Cl)c1)C(=O)NCC1NC(=O)C2(CC2)CNC(=O)CCSSCCNC(=O)C(Cc2c[nH]c3ccccc23)NC1=O (mixture of isomers) [X-Amcp-Dap-D-Trp + Acid 113]
(b) O=C(/C=C/c1ccc2ccccc2c1)NCCN1CC(=O)N[C@@H](Cc2c[nH]c3cc(Cl)ccc23)C(=O)NCCSSCCC(=O)NCC2(CC2)C1=O
INPUT: Choose between a and b : whose measured fraction of fluorescent probe displaced value is numerically larger? Answer by quoting the chosen item's label.
OUTPUT: a
(a: -0.012, b: -0.019)

(a) O=C(/C=C/c1ccc(OCc2ccccc2)cc1)NC[C@@H]1NC(=O)C2(CC2)CNC(=O)CCSSCCNC(=O)[C@@H](Cc2c[nH]c3ccccc23)NC1=O
(b) O=C1CN(CCNC(=O)c2cccc(Oc3ccccc3)c2)C(=O)[C@H]2CCCN(C2)C(=O)CCSSCCNC(=O)[C@H](Cc2cccc3ccccc23)N1
INPUT: Given the listed items, does a or b have the lesser reported fraction of fluorescent probe displaced? Answer by quoting the chosen item's label.
OUTPUT: a
(a: 0.008, b: 0.035)

(a) O=C1CCSSCCNC(=O)[C@H](Cc2c[nH]c3cc(Cl)ccc23)NC(=O)[C@H](CNC(=O)c2cccc(Oc3ccccc3)c2)NC(=O)C2(CC2)CN1
(b) O=C(/C=C/c1ccc(OCc2ccccc2)cc1)NCCN1CC(=O)N[C@@H](Cc2cccc3ccccc23)C(=O)NCCSSCCC(=O)N2CCC[C@@H](C2)C1=O
INPUT: Choose between a and b : whose measured fraction of fluorescent probe displaced value is numerically larger? Answer by quoting the chosen item's label.
OUTPUT: a
(a: 0.008, b: -0.00533)

====

target: MDM2 (Homo sapiens, UniProt Q00987); test: MDM2 binding screen of Libraries 3 and 4: displacement of fluorescent probe F-M8 at 750 nM macrocycle; conditions: Panel b, Library 3: 63 scaffolds combinatorially acylated with 15 carboxylic acids at 30 picomole scale; displacement of fluorescent peptide probe; macrocycle 750 nM
Sequence (Q00987 whole entry): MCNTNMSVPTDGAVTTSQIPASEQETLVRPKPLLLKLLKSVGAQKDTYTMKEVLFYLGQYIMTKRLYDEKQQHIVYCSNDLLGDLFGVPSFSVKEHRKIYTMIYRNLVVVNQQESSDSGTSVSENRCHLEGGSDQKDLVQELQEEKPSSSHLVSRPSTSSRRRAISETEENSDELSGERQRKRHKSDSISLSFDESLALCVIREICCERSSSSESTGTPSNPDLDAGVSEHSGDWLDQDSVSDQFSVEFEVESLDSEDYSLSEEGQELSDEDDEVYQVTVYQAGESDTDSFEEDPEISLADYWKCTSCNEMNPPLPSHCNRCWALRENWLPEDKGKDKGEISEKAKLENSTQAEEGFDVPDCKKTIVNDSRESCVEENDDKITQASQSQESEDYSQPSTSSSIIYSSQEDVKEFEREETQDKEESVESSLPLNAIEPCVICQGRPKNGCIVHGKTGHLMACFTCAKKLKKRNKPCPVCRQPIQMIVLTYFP
Measurement Type: fraction of fluorescent probe displaced

// solved cases for fraction of fluorescent probe displaced follow
O=C1CN(CCNC(=O)c2ccc(Cl)s2)C(=O)C2CN(CCO2)C(=O)CCSSCCNC(=O)C(Cc2ccc3ccccc3c2)N1 (centres unmarked)	-0.019
CN1C(=O)[C@@H](CNC(=O)c2ccc(Cl)s2)NC(=O)[C@@H]2CN(CCO2)C(=O)CCSSCCNC(=O)[C@@H]1Cc1c[nH]c2ccccc12	-0.019

(1) O=C1CCSSCCNC(=O)[C@H](Cc2c[nH]c3cc(Cl)ccc23)NC(=O)[C@@H](CNC(=O)c2ccc(Cl)s2)NC(=O)C2(CC2)CN1
(2) O=C(NC[C@@H]1NC(=O)[C@H]2CCCN(C2)C(=O)CCSSCCNC(=O)[C@H](Cc2c[nH]c3cc(Cl)ccc23)NC1=O)c1ccc2ccccc2c1
INPUT: Choose between 1 and 2 : whose measured fraction of fluorescent probe displaced value is numerically larger? Answer by quoting the chosen item's label.
OUTPUT: 2
(2: 0.232, 1: 0.008)

====

target: thrombin (Homo sapiens); construct: consists of two polypeptide chains of 36 (light chain) and 259 amino acid; assay: Thrombin inhibition screen of crude macrocycle reactions (residual thrombin activity, fluorogenic substrate Z-Gly-Gly-Arg-AMC); assay type: biochemical; conditions: 10 µM macrocycle concentration; macrocycles containing acid 14; crude reaction; original screen
Numbered stars: 1 amine (or outer) side, 2 acyl side, 3 side chain; on linkers, the order of the positions; unused ones are H or OH. Bridge positions count the residues as written; N and C are the ends. Square brackets hold non-standard residues; d marks the D form. Peptide text beside a SMILES is read from it. * marks the point of attachment. 2Thenoyl(5-Cl) = O=C(c1ccc(Cl)s1)*; Cysteamide = C(CS[*:3])N[*:1]; dDap = NC[C@@H](N)C(=O)O; Orn = NCCC[CH](N)C(=O)O; Mpa = O=C(O)CCS
Measurement Type: % thrombin activity, Original screen (%)

O=C1CCSSCCNC(=O)[C@H]2CCCN(C2)C(=O)C2(CCN(C(=O)c3ccc(Cl)s3)CC2)NC(=O)[C@@H](CO)N1 [X s D6 B4]	93.8
CC(C)C[C@@H]1NC(=O)CCSSCCNC(=O)[C@@H]2CCCN2C(=O)[C@@H](CNC(=O)c2ccc(Cl)s2)NC1=O [X L D4 B1] ([Mpa]L[dDap](2Thenoyl(5-Cl))P-Cysteamide; disulfide 1-C)	107.5
O=C1CCSSCCNC(=O)C2(CC2)CNC(=O)C2(CCN(C(=O)c3ccc(Cl)s3)CC2)NC(=O)[C@@H](Cc2c[nH]c3ccccc23)N1 [X w D6 B6]	89.3
NC(=O)CC[C@@H]1NC(=O)[C@H](CNC(=O)c2ccc(Cl)s2)NC(=O)CCSSCCNC(=O)C2(CC2)CNC1=O [X D3 Q B6]	72.8
NC(=O)CCC1NC(=O)C2CC(NC(=O)c3ccc(Cl)s3)CN2C(=O)C2(CC2)CNC(=O)CCSSCCNC1=O (stereo not drawn) [X B6 D5 Q]	109.4
NC(=O)CCC1NC(=O)C2CCCN2C(=O)CCSSCCNC(=O)C(CCCNC(=O)c2ccc(Cl)s2)NC1=O (stereo not drawn) [X B1 Q D2] ([Mpa]PQ[Orn](2Thenoyl(5-Cl))-Cysteamide; disulfide 1-C; configuration not given here)	92.6
CC1NC(=O)CCSSCCNC(=O)C(CCCCNC(=O)c2ccc(Cl)s2)NC(=O)C2CCCN2C1=O (stereo not drawn) [X a B1 D1] ([Mpa]APK(2Thenoyl(5-Cl))-Cysteamide; disulfide 1-C; configuration not given here)	106.8
CC(C)C1NC(=O)CCSSCCNC(=O)C(CNC(=O)c2ccc(Cl)s2)NC(=O)C2CCCN(C2)C1=O (stereo not drawn) [X V B4 D3]	75.0
C[C@H]1NC(=O)CCNC(=O)CCSSCCNC(=O)C2(CCN(C(=O)c3ccc(Cl)s3)CC2)NC1=O [X B2 a D6]	96.5
O=C1CCNC(=O)[C@H](Cc2c[nH]cn2)NC(=O)CCSSCCNC(=O)[C@H](CCCNC(=O)c2ccc(Cl)s2)N1 [X H B2 D2]	94.6
O=C1CCSSCCNC(=O)C2(CCN(C(=O)c3ccc(Cl)s3)CC2)NC(=O)[C@H](Cc2c[nH]cn2)NC(=O)CCN1 [X B2 H D6]	96.8
NC(=O)CCC1NC(=O)CCNC(=O)C(CNC(=O)c2ccc(Cl)s2)NC(=O)CCSSCCNC1=O (stereo not drawn) [X D3 B2 Q]	91.4
NC(=O)CC[C@@H]1NC(=O)C2(CC2)CNC(=O)CCSSCCNC(=O)[C@H](CCCNC(=O)c2ccc(Cl)s2)NC1=O [X B6 Q D2]	99.3
CC[C@H](C)[C@@H]1NC(=O)[C@H](CCCNC(=O)c2ccc(Cl)s2)NC(=O)CCSSCCNC(=O)CCNC1=O [X D2 I B2]	94.1
O=C1CCSSCCNC(=O)c2ccc(cc2)CNC(=O)[C@H](Cc2c[nH]c3ccccc23)NC(=O)[C@H](CNC(=O)c2ccc(Cl)s2)N1 [X D3 W B3]	101.5
O=C1CCSSCCNC(=O)c2cccc(c2)CNC(=O)[C@@H](CNC(=O)c2ccc(Cl)s2)NC(=O)[C@@H](Cc2c[nH]c3ccccc23)N1 [X w D4 B5]	95.1
O=C1CCSSCCNC(=O)[C@H](CCCCNC(=O)c2ccc(Cl)s2)NC(=O)[C@@H](Cc2ccc(O)cc2)NC(=O)c2ccc(cc2)CN1 [X B3 y D1]	106.6
O=C1CCSSCCNC(=O)C(Cc2ccccc2)NC(=O)C2CC(NC(=O)c3ccc(Cl)s3)CN2C(=O)c2cccc(c2)CN1 (stereo not drawn) [X B5 D5 f]	91.3
